system.name: Beta-lactamase (Enterobacter cloacae)
assay.text: Inhibition of Enterobacter cloacae beta-lactamase incubated for 10 mins followed by nitrocefin substrate challenge and measured for 5 mins by spectrophotometric analysis
experimental.parameters: read-out: IC50
measured.quantity: IC50

* CC(=O)c1c(O)c(C)c(O)c(Cc2c(O)c3c(c(C(=O)/C=C/c4ccccc4)c2O)OC(C)(C)C=C3)c1O | 96 µM
* C[C@@H]1O[C@@H](OC[C@H]2O[C@@H](Oc3c(-c4ccc(O)c(O)c4)oc4cc(O)cc(O)c4c3=O)[C@H](O)[C@@H](O)[C@@H]2O)[C@H](O)[C@H](O)[C@H]1O | > 500 µM
* CC1(C)S[C@@H]2[C@H](NC(=O)Cc3ccccc3)C(=O)N2[C@H]1C(=O)O [PENICILLIN G SODIUM] | 7.2 µM
* O=C(CCc1ccc(O)cc1)c1c(O)cc(O)cc1O | 496 µM
* O=c1c(O)c(-c2ccc(O)c(O)c2)oc2cc(O)cc(O)c12 | 85 µM

====

system.name: Beta-lactamase (Enterobacter cloacae)
assay.text: Inhibition of Enterobacter cloacae beta-lactamase incubated for 10 mins followed by nitrocefin substrate challenge and measured for 5 mins in presence of Triton X-100 by spectrophotometric analysis
measured.quantity: IC50 (µM)

* CC1(C)S[C@@H]2[C@H](NC(=O)Cc3ccccc3)C(=O)N2[C@H]1C(=O)O [PENICILLIN G SODIUM] | 3.6
* CC(=O)c1c(O)c(C)c(O)c(Cc2c(O)c3c(c(C(=O)/C=C/c4ccccc4)c2O)OC(C)(C)C=C3)c1O [ROTTLERIN] | 142

====

system.name: Chymotrypsinogen A (Bos taurus, UniProt P00766)
assay.text: Inhibition of alpha-chymotrypsin in bovine pancreas using SPpNA as substrate pretreated with enzyme for 30 mins followed by substrate addition and measured for 12 mins by spectrophotometric analysis
experimental.parameters: read-out: IC50
pIC50: −log10 of the molar value.
measured.quantity: pIC50

• O=c1cc(-c2ccc(O)c(O)c2)oc2ccccc12 = 3.65
• C[C@@H]1O[C@@H](OC[C@H]2O[C@@H](Oc3c(-c4ccc(O)c(O)c4)oc4cc(O)cc(O)c4c3=O)[C@H](O)[C@@H](O)[C@@H]2O)[C@H](O)[C@H](O)[C@H]1O = 3.53

====

system.name: Beta-lactamase (Enterobacter cloacae, UniProt P05364)
Sequence (P05364 whole entry): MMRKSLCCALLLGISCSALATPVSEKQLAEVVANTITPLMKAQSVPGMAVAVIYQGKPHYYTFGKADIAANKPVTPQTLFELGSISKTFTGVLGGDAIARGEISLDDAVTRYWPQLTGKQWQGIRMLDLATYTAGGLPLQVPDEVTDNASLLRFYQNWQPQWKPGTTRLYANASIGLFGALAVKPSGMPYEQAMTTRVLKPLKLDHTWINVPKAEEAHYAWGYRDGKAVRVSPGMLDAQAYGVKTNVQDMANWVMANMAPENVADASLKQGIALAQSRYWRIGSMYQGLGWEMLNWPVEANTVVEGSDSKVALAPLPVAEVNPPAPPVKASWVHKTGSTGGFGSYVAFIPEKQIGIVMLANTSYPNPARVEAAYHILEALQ
assay.text: Inhibition of Enterobacter cloacae beta-lactamase incubated for 10 mins followed by nitrocefin substrate challenge and measured for 5 mins in presence of 1 mM DTT by spectrophotometric analysis
measured.quantity: IC50 (µM)

* O=c1c(O)c(-c2ccc(O)c(O)c2)oc2cc(O)cc(O)c12 [QUERCETIN] | 224
